test system: NKL (IL-2 2.5 ng/mL); test: percent inhibition of viability; higher = more inhibition; conditions: 72 h; 100 nM;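 note: normalised to DMSO-only wells as negative and benzethonium chloride as positive control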
Hi there, I'd appreciate the recorded percent inhibition of viability for every entry that follows.

> print(dat)
                                   compound                reported.endpoint  result
1  CCN(c1cc(-c2ccc(CN3CCOCC3)cc2)cc(C(=O)NCc2c(C)cc(C)[nH]c2=O)c1C)C1CCOCC1 [E7438] (max concentration tested 10000 nM)  percent inhibition of viability   3.68%
2  CC[C@H](CO)Nc1nc(NCc2ccccc2)c2ncn(C(C)C)c2n1 [Seliciclib] (max concentration tested 10000 nM)  percent inhibition of viability  -16.8%
3  Nc1ncnc2c1c(COc1cccc(Cl)c1)nn2C1CCOCC1 (max concentration tested 10000 nM)  percent inhibition of viability   6.33%
4  O=NN(CCCl)C(=O)NC1CCCCC1 [Lomustine] (max concentration tested 10000 nM)  percent inhibition of viability  -19.5%
5  O=C(c1cc(Cc2n[nH]c(=O)c3ccccc23)ccc1F)N1CCN(C(=O)C2CC2)CC1 [Olaparib] (max concentration tested 10000 nM)  percent inhibition of viability   27.9%
6  CC(=O)Nc1ccc(C(=O)Nc2ccccc2N)cc1 [Tacedinaline] (max concentration tested 1000 nM)  percent inhibition of viability   10.4%

Now for a further compound.
Q. Give percent inhibition of viability only, for Cc1nc(N)sc1-c1ccnc(Nc2ccc(N3CCOCC3)cc2)n1 [CYC-116] (max concentration tested 10000 nM) , using NKL (IL-2 2.5 ng/mL) data.
A. -5.36%

Every entry's value here was drawn from the supplement of paper PMC5908809.
